# Tgt: human PD-1 expressed on cells (CHO human PD-1 cells) (human, UniProt Q15116 21-288)
# Sequence (Q15116 21-288): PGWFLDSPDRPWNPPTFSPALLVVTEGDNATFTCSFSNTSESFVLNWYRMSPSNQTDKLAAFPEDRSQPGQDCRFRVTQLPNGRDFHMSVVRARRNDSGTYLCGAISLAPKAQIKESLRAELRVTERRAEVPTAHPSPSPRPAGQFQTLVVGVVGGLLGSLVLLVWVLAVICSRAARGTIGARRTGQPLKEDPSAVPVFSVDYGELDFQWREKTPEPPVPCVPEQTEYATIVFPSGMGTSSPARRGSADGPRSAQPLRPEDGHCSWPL
# Protocol summary: cell-based or functional assay
Measured quantity: Reporter Assay EC50 (nM)

Record excerpt, results attached:
Problem: Using the record for Humabody® 1.42 (VHH, human VH single domain antibody) VHH: QVQLVESGGGLVKPGGSLRLSCAASGFTFSDNSMTWMRQAPGKGLEWVSYISSGGGVKFYADSVKGRFTISRDNAKNSLYLQMNSLRADDTAVYYCAREAPLRLGESPHDAFDIWGQGTMVTVSS , report its Reporter Assay EC50.
Result: 8.6

Problem: What do we get for Humabody® 1.57 (VHH, human VH single domain antibody) VHH: QVQLVESGGGLVKPGGSLRLSCAASGFTFSDNSMTWMRQAPGKGLEWVSYISSGGGVIFYADSVKGRFTISRDNAKNSLYLQMNSLRADDTAVYYCAREAPLRLGESPHDAFDISGQGTMVTVSS ?
Result: 8.6

A. Humabody® 1.63 (VHH, human VH single domain antibody) VHH: EVQLVESGGGLVKPGGSLRLSCAASGFTFSDSSMTWMRQAPGKGLEWVSYISSGGGVKFYTDSVKGRFTISRDNAKNSLYLQMNSLRADDTAVYYCAREAPLRLGESPHDAFDISGQGTMVTVSS
B. Humabody® 1.59 (VHH, human VH single domain antibody) VHH: QVQLVESGGGLVKPGGSLRLSCAASGFTFSDNSMSWMRQAPGKGLEWVSYISSGGSVKFYADSVKGRFTISRDNAKNSLYLQMNSLRADDTAVYYCAREAPLRLGESPHDAFDIWGQGTMVTVSS
Problem: Lab notebook, comparison: A versus B , higher Reporter Assay EC50 goes to which? Record your answer as the label of the chosen record.
Result: B
(B: 24 nM, A: 12 nM)
